Experiment: In vivo pharmacokinetic study in male Sprague-Dawley rats (IV and PO)
Set-up: species or system Sprague-Dawley rat
Settings: male, Sprague-Dawley, rat, plasma, po, 10 mg/kg, male SD rats, PO 10 mpk
measured.property: half-life (h)
Report the figure in h without appending any unit label.

For O=C(O)CSc1nnc(Br)n1-c1ccc(C2CC2)c2ccccc12 (racemic) [(±)-Lesinurad, Lesinurad, reference compound] the compound record lists half-life as 2.46

The reported value for O=C(O)CSc1nnc(Br)n1-c1ccc(C2CC2)c2ccccc12 (single isomer, unassigned) [(+)-Lesinurad] in terms of half-life is 2.25

====

Assay: In vivo pharmacokinetic study in male Sprague-Dawley rats (IV and PO)
Set-up: species or system Sprague-Dawley rat
Details: Sprague-Dawley, rat, plasma, 2 mg/kg; male SD rats, IV 2 mpk; read-out: AUC0-inf
measured.property: AUC0-inf (µM·h)
All answers are understood in µM·h, so give the number only.

The molecule identified as O=C(O)CSc1nnc(Br)n1-c1ccc(C2CC2)c2ccccc12 (racemic) [(±)-Lesinurad, Lesinurad, reference compound] registered its AUC0-inf at 14.8

====

Assay: Stability of compounds in SD rat plasma
Format: in vitro ADME
Settings: SD, rat, plasma, pH 7.4, SD rat plasma, 2 μM, 37° C., 120 min; read-out: Recovery (% remaining)
measured.property: recovery at 120 min, 2 μM
Give the value; after it, write the unit.

recovery at 120 min, 2 μM reading for O=C(O)CSc1nnc(Br)n1-c1ccc(C2CC2)c2ccccc12 (single isomer, unassigned) [(−)-Lesinurad] : 100%

====

Please respond with reported MRT inf for every item in the list.
Experiment: In vivo pharmacokinetic study in male Sprague-Dawley rats (IV and PO)
Set-up: species or system Sprague-Dawley rat
Conditions: male, Sprague-Dawley, rat, plasma, po, 10 mg/kg, male SD rats, PO 10 mpk; read-out: MRT0-inf
Give the value in h but do not write h after it.

MRT inf in this record for O=C(O)CSc1nnc(Br)n1-c1ccc(C2CC2)c2ccccc12 (single isomer, unassigned) [(+)-Lesinurad] : 4.09

// sample O=C(O)CSc1nnc(Br)n1-c1ccc(C2CC2)c2ccccc12 (racemic) [(±)-Lesinurad, Lesinurad, reference compound] , its MRT inf was 4.63

====

Task for the reader: assign each of the following compounds its reported Tmax.
Assay: In vivo pharmacokinetic study in male Sprague-Dawley rats (IV and PO)
Set-up: species or system Sprague-Dawley rat
Conditions: male, Sprague-Dawley, rat, plasma, po, 10 mg/kg, male SD rats, PO 10 mpk; read-out: Tmax
Write the value in h as a bare number.

// recorded Tmax for O=C(O)CSc1nnc(Br)n1-c1ccc(C2CC2)c2ccccc12 (single isomer, unassigned) [(+)-Lesinurad] : 3

Lab book: Tmax of O=C(O)CSc1nnc(Br)n1-c1ccc(C2CC2)c2ccccc12 (racemic) [(±)-Lesinurad, Lesinurad, reference compound] noted as 2.33

====

Assay: Stability of compounds in human plasma
Type: in vitro ADME
Conditions: human, plasma, pH 7.4, human plasma, 2 μM, 37° C., 120 min; read-out: Recovery (% remaining)
measured.property: recovery at 120 min, 2 μM (%)
Provide the reading as a plain figure in %.

recovery at 120 min, 2 μM recorded for this compound, O=C(O)CSc1nnc(Br)n1-c1ccc(C2CC2)c2ccccc12 (single isomer, unassigned) [(−)-Lesinurad] , is 101
